target.under.test: rat MCH1 receptor (Rattus norvegicus, UniProt P97639)
Construct: operatively linked to DNA encoding the rat MCH1 receptor so as to permit expression thereof
Sequence (P97639 whole entry): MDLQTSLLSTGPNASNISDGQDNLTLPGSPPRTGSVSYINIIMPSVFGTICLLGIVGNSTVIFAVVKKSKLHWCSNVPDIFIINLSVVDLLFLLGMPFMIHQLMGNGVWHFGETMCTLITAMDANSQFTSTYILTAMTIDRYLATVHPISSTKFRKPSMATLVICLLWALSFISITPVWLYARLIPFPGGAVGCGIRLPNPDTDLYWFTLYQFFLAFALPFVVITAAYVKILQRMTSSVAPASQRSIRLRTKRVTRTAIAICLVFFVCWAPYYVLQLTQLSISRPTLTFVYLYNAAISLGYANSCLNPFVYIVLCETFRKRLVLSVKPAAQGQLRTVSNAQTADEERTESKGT
protocol.text: Radioligand binding assay at cloned rat MCH1 receptor ([3H]Compound A)
setup.conditions: cloned rat MCH1, Peakr293 cell membranes, 0.08 nM [3H]Compound A, 25° C., 90 minutes; read-out: Ki(MCH-1)
readout.kind: Ki (nM)
Answers are plain numbers, in nM.

Please review the entries below; each comes with its answer.
{"columns": ["chemical.structure", "readout.kind", "measured.result"],
 "data": [
  ["CC(C)C(=O)Nc1cccc(C2CCN(CCCNC(=O)C3(c4ccc(Cl)cc4)CCCC3)CC2)c1", "Ki", 8.2],
  ["CC(C)C(=O)Nc1cccc(C2CCN(CCCNC(=O)C(c3ccccc3)(c3ccccc3)c3ccccc3)CC2)n1", "Ki", 8.6],
  ["CC(C)C(=O)Nc1cccc(C2CCN(CCCNC(=O)C(C)(c3ccccc3)c3ccccc3)CC2)n1", "Ki", 10.3],
  ["CC(C)OC(=O)Nc1cccc(C2CCN(CCCNC(=O)C(c3ccc(Cl)cc3)c3ccc(Cl)cc3)CC2)c1", "Ki", 6.2],
  ["Cc1ccc(NC(=O)C(C)C)cc1C1CCN(CCCNC(=O)[C@H](C)c2ccccc2)CC1", "Ki", 14.6]
]}

Each of the following entries comes with a recorded value; kindly state Ki for each.
1. CC[C@@H](C(=O)NCCCN1CCC(c2cc(NC(=O)C(C)C)ccc2C)CC1)c1ccccc1
2. CCCCCC(C(=O)NCCCN1CCC(c2cccc(NC(=O)C(C)C)c2)CC1)(c1ccccc1)c1ccccc1
3. CC(C)C(=O)Nc1cc(C2CCN(CCCNC(=O)C(C)(c3ccccc3)c3ccccc3)CC2)ccc1F

Reply text:
1. 8.6
2. 8.4
3. 11.8

###

Provide the recorded pKi for the entries that follow.
target.under.test: rat MCH1 receptor (Rattus norvegicus, UniProt P97639)
Construct: operatively linked to DNA encoding the rat MCH1 receptor so as to permit expression thereof
protocol.text: Radioligand binding assay at cloned rat MCH1 receptor ([3H]Compound A)
setup.conditions: cloned rat MCH1, Peakr293 cell membranes, 0.08 nM [3H]Compound A, 25° C., 90 minutes; read-out: Ki(MCH-1)
Answers are plain numbers, as −log10 of the molar value.

Past entries and their recorded results:
{"columns": ["chemical.structure", "measured.result"],
 "data": [
  ["CC(C)C(=O)Nc1ccc(F)c(C2CCN(CCCNC(=O)C(c3ccccc3)c3ccccc3)CC2)c1", 8.33],
  ["CC(C)C(=O)Nc1cccc(C2CCN(CCCNC(=O)C3(c4ccc(F)cc4)CCCC3)CC2)n1", 7.61],
  ["Cc1ccc(NC(=O)C(C)C)cc1C1CCN(CCCNC(=O)Cc2ccc(F)cc2)CC1", 7.61],
  ["Cc1ccc(C(C(=O)NCCCN2CCC(c3cc(NC(=O)C(C)C)ccc3F)CC2)c2ccc(C)cc2)cc1", 9.22]
]}

Your task in this section: give pKi for each listed record.
1. CC(C)C(=O)Nc1ccc(F)c(C2CCN(CCCNC(=O)C3(c4ccc(F)cc4Cl)CCCC3)CC2)c1
2. CC(C)(C)CC(=O)Nc1cccc(C2CCN(CCCNC(=O)C(c3ccccc3)c3ccccc3)CC2)c1

Reply text:
1. 7.93
2. 7.63

###

Would you kindly list pKi for each of these compounds?
target.under.test: rat MCH1 receptor (Rattus norvegicus, UniProt P97639)
Construct: operatively linked to DNA encoding the rat MCH1 receptor so as to permit expression thereof; expressed in transfected cells; host or cells: Human embryonic kidney Peak rapid 293 (Peakr293) cells, transient calcium phosphate transfection, membranes
protocol.text: Radioligand binding assay at cloned rat MCH1 receptor ([3H]Compound A)
setup.conditions: cloned rat MCH1, Peakr293 cell membranes, 0.08 nM [3H]Compound A, 25° C., 90 minutes; read-out: Ki(MCH-1)
Numbers only, as −log10 of the molar value.

Recorded pKi, per entry:
{"columns": ["compound", "measured.result"],
 "data": [
  ["CC(C)C(=O)Nc1cc(C2CCN(CCCNC(=O)C(c3ccc(F)cc3)c3ccc(F)cc3)CC2)c(F)cc1F", 8.96],
  ["Cc1ccc(NC(=O)C(C)C)cc1C1CCN(CCCNC(=O)[C@@H](C)c2ccc(Cl)cc2)CC1", 8.24],
  ["COC(C(=O)NCCCN1CCC(c2cccc(NC(=O)C(C)C)c2)CC1)c1ccc(Cl)c(Cl)c1 (stereo not shown)", 7.49],
  ["Cc1ccc(NC(=O)C(C)C)cc1C1CCN(CCCNC(=O)C(c2ccc(F)cc2)c2ccc(F)cc2)CC1", 9.22]
]}

Dear reader, for each entry below, please note its pKi.
1. CC(=O)Nc1cccc(C2CCN(CCCNC(=O)C(c3ccccc3)c3ccccc3)CC2)c1
2. O=C(Nc1cccc(C2CCN(CCCNC(=O)C(c3ccccc3)c3ccccc3)CC2)c1)OCc1ccccc1
3. Cc1ccc(NC(=O)C(C)C)cc1C1CCN(CCCNC(=O)C(c2ccccc2)c2ccccc2)CC1

Reply text:
[8.60, 6.74, 8.60]

###

target.under.test: rat MCH1 receptor (Rattus norvegicus)
Construct: operatively linked to DNA encoding the rat MCH1 receptor so as to permit expression thereof
protocol.text: Radioligand binding assay at cloned rat MCH1 receptor ([3H]Compound A)
setup.conditions: cloned rat MCH1, Peakr293 cell membranes, 0.08 nM [3H]Compound A, 25° C., 90 minutes; read-out: Ki(MCH-1)
readout.kind: pKi
Give bare numbers, as −log10 of the molar value.

{"columns": ["chemical.structure", "pKi"],
 "data": [
  ["CC(C)C(=O)Nc1cc(C2CCN(CCCNC(=O)C(c3ccccc3)c3ccccc3)CC2)ccc1F", 8.35],
  ["CC(=O)Nc1cccc(C2CCN(CCCNC(=O)C(C)(c3ccccc3)c3ccccc3)CC2)c1", 8.10],
  ["CCCC(=O)Nc1cccc(C2CCN(CCCNC(=O)C3(c4ccc(F)cc4)CCCC3)CC2)c1", 7.95]
]}

Turning now to a further compound:
Inquiry: For the compound O=C(Nc1cccc(C2CCN(CCCNC(=O)C3(c4ccc(Cl)cc4)CC3)CC2)c1)C1CC1 , what pKi is on record?
Reply text: 7.86

###

target.under.test: rat MCH1 receptor (Rattus norvegicus, UniProt P97639)
Construct: operatively linked to DNA encoding the rat MCH1 receptor so as to permit expression thereof
protocol.text: Radioligand binding assay at cloned rat MCH1 receptor ([3H]Compound A)
setup.conditions: cloned rat MCH1, Peakr293 cell membranes, 0.08 nM [3H]Compound A, 25° C., 90 minutes; read-out: Ki(MCH-1)
Assignment: determine reported Ki for the given molecules.
Answers are plain numbers, in nM.

# map each molecule to its Ki
1. CCCC(=O)Nc1cc(C2CCN(CCCNC(=O)C3(c4ccc(F)cc4)CCCC3)CC2)ccc1F [Example 107]
2. CCC(=O)Nc1cccc(C2CCN(CCCNC(=O)C(C)c3ccc(F)cc3)CC2)c1 (centres unmarked) [Example 64]

Reply text:
1: 101; 2: 70.7

# map each molecule to its Ki
1. CC(C)C(=O)Nc1cccc(C2CCN(CCCNC(=O)C(Br)c3ccccc3)CC2)c1 (centres unmarked) [Example 9]
2. CC(C)C(=O)Nc1cncc(C2CCN(CCCNC(=O)C(c3ccccc3)c3ccccc3)CC2)c1 [Example 170]
3. CC(C)C(=O)Nc1cccc(C2CCN(CCCNC(=O)C3(c4ccc(Cl)cc4)CCC3)CC2)c1 [Example 43]

Reply text:
[71.6, 19.1, 13.7]

Below are some molecules; for each one, tell me its Ki.
1. CCCC(=O)Nc1cccc(C2CCN(CCCNC(=O)C(c3ccccc3)(c3ccccc3)c3ccccc3)CC2)c1 [Example 97]
2. CC(=O)Nc1cccc(C2CCN(CCCNC(=O)C3(c4ccc(F)cc4)CCCCC3)CC2)c1 [Example 70]
3. CC(C)C(=O)Nc1ccc(F)c(C2CCN(CCCNC(=O)C3(c4ccc(Cl)cc4)CCCCC3)CC2)c1 [Example 130]
4. CC(C)C(=O)Nc1cccc(C2CCN(CCCNC(=O)C3(c4ccc(F)cc4Cl)CCCC3)CC2)c1 [Example 38]

Reply text:
1: 3.6; 2: 26.7; 3: 2.6; 4: 28.4

###

target.under.test: rat MCH1 receptor (Rattus norvegicus, UniProt P97639)
Construct: operatively linked to DNA encoding the rat MCH1 receptor so as to permit expression thereof
protocol.text: Radioligand binding assay at cloned rat MCH1 receptor ([3H]Compound A)
setup.conditions: cloned rat MCH1, Peakr293 cell membranes, 0.08 nM [3H]Compound A, 25° C., 90 minutes; read-out: Ki(MCH-1)
Can you tell me pKi for the items I'm about to list?
Give bare numbers, as −log10 of the molar value.

Some entries whose results are on file:
{"columns": ["compound", "target.under.test", "measured.result"],
 "data": [
  ["Cc1c(NC(=O)C(C)C)cccc1C1CCN(CCCNC(=O)C(c2ccccc2)c2ccccc2)CC1 [Example 33]", "rat MCH1 receptor (Rattus norvegicus, UniProt P97639)", 6.30],
  ["CC(C)OC(=O)Nc1cccc(C2CCN(CCCNC(=O)C(c3ccccc3)c3ccccc3)CC2)c1 [Example 144]", "rat MCH1 receptor (Rattus norvegicus, UniProt P97639)", 7.48],
  ["CC(C)C(=O)Nc1cccc(C2CCN(CCCNC(=O)C(C)c3ccc(Cl)cc3)CC2)c1 (centres unmarked) [Example 37]", "rat MCH1 receptor (Rattus norvegicus, UniProt P97639)", 7.71],
  ["O=C(Nc1cccc(C2CCN(CCCNC(=O)C3(c4ccc(F)cc4Cl)CCCC3)CC2)c1)C1CC1 [Example 119]", "rat MCH1 receptor (Rattus norvegicus, UniProt P97639)", 7.73]
]}

For the next question, use this compound.
Inquiry: Form field: reported pKi of CC(C)C(=O)Nc1cccc(C2CCN(CCCNC(=O)C(F)(F)c3ccccc3)CC2)c1 [Example 125]
Reply text: 6.90

Each recorded value in this set is attributed to patent US20060217418A1.
